- Tested on: NCI-H226
- testMethodNotes: NCI tumour cell line growth inhibition, 48 h
Active and inactive are the calls of the source. Rule as the data show it: active = GI50 up to about 1.1 µM and inactive = higher.
reportedMetric: GI50

Here is how some compounds turned out for GI50.
COc1cc2c3c(cc(Cl)nc3c1OC)C(O)(CC(=O)c1ccccc1)C(=O)N2 (stereo unspecified) :: 21.5 µM (inactive)
N=c1oc2ccc(Cl)cc2cc1C(=O)Nc1ccccc1 :: > 100 µM (inactive)
CN(CCNC(=O)c1c[nH]c2c1ccc1ccccc12)CCNC(=O)c1c[nH]c2c1ccc1ccccc12 :: 18.1 µM (inactive)
CCCC(=O)OC[n+]1cccc(-c2c(COC(=O)NC(C)C)c(COC(=O)NC(C)C)c3n2CCC3)c1 :: > 91 µM (inactive)

Query: GI50; subject: "O=C/C(=C(/Br)I)c1ccccc1"
9.64 µM (inactive)

What do we get for Cc1ccc(NC(=O)C(=O)CC(=O)C2CCOC2=O)c(C)c1 (stereo unspecified) ?
> 100 µM (inactive)

---

- Test system: K562
- testMethodNotes: NCI tumour cell line growth inhibition, 48 h
Calls of active or inactive are those of the source. Rule as the data show it: active = GI50 up to about 1.1 µM and inactive = higher.
reportedMetric: GI50

C1=Cc2nc1c(-c1ccccc1)c1ccc([n-]1)c(-c1ccccc1)c1nc(c(-c3ccccc3)c3ccc([n-]3)c2-c2ccccc2)C=C1.[Zn+2] :: > 100 µM (inactive)
O=c1oc2c(O)c(O)cc3c(=O)oc4c(O)c(O)cc1c4c23 :: > 10 µM (inactive)
SC1=NC2=C(CSC/C2=C\c2ccc(Cl)cc2)C(c2ccc(Cl)cc2)N1 (centres undefined) :: 28.6 µM (inactive)

Find the recorded GI50 belonging to "Cc1[nH]c2[nH]c(=S)nc(NC(N)=S)c2c1Cc1ccccc1" and report it.
25.9 µM (inactive)

Check "N=C(N)SCc1ccc(Cl)c2ccccc12.O=[N+]([O-])c1ccc(O)c([N+](=O)[O-])c1" too.
0.421 µM (active)

Now try "CCCCCC(O)(CCCCC)CCCCCCCCC1=C(O)C(=O)c2ccc(=O)[nH]c2C1=O" .
5.07 µM (inactive)

What about "COc1cc2c(cc1OCCCCOc1cc3nc(C)nc(Cl)c3cc1OC)N=C[C@@H]1CCCN1C2=O" ?
2.07 µM (inactive)

CC1CCc2sc3nc4n(c(=O)c3c2C1)CC(C)S4 (centres undefined) , same question.
24.7 µM (inactive)

Input CC(=O)OC1CCC2(C)C(=CCC3C2CCC2(C)C(C(C)C(=O)O)CCC32)C1 (centres undefined)
> 100 µM (inactive)

---

Measured GI50 of individual entries
- System: RXF 393
- testMethodNotes: NCI tumour cell line growth inhibition, 48 h
The source made the active and inactive calls. Rule as the data show it: active = GI50 up to about 1.1 µM and inactive = higher.

Solved entries (count: 5):
CCC(CC)n1cc(C(=O)NC(=O)NCCCCCOC(=O)CCCCCCCCCCC(=O)OCCCCCNC(=O)NC(=O)c2cn(C(CC)CC)c(=O)[nH]c2=O)c(=O)[nH]c1=O :: 29.1 µM (inactive)
C[N+](C)(C)/N=C\c1ccc(O)c(O)c1 :: > 100 µM (inactive)
Cc1nn(-c2ccccc2)c(C)c1/C=N/NC(=O)c1sc(=S)n(-c2ccc(Cl)cc2)c1N :: 2.15 µM (inactive)
COc1cc(C(O)C(=O)c2cnc3cc([N+](=O)[O-])ccc3n2)ccc1O (centres undefined) :: 64.1 µM (inactive)
Cc1cc(O)c2c3c1C(=O)Oc1c(CO)c(O)c(C(=O)O)c(c1O3)C=NN=Cc1c3c(c(CO)c(O)c1C(=O)O)OC(=O)c1c(C)cc(O)c(c1O3)C=NN=C2 :: > 100 µM (inactive)

Which GI50 is listed for COC(=O)C1(Cc2ccc(C)cc2)Cc2c(C)cccc2C1=O (centres undefined) ?
9.71 µM (inactive)

---

- Test system: LOX IMVI
- testMethodNotes: NCI tumour cell line growth inhibition, 48 h
Calls of active or inactive are those of the source. Rule as the data show it: active = GI50 up to about 1.1 µM and inactive = higher.
reportedMetric: GI50

Example entries begin here.
N=c1oc2ccc(Cl)cc2cc1C(=O)Nc1ccccc1 :: > 100 µM (inactive)
C=C1C2CC(OC(C)=O)C3(C)C(c4ccoc4)OC(=O)[C@@H](O)[C@]13OC1C[C@H](OC(C)=O)C(C)(C)[C@H](C(O)C(=O)OC)[C@]12C (stereo not given in full) :: > 100 µM (inactive)
CC1=C(C(=O)NNC(=O)CC#N)CC(C(=O)NNC(=O)CC#N)=C(C)N1 :: > 100 µM (inactive)
CC(C)(C)OC(=O)NCCCCC(N)NC(=O)c1ccccc1 (stereo not given) :: > 100 µM (inactive)

Please find the next molecule below.
Please report the recorded GI50 for "Cc1nn(-c2ccccc2)c(C)c1/C=N/NC(=O)c1sc(=S)n(-c2ccc(Cl)cc2)c1N" .
3.27 µM (inactive)

---

The following molecules are listed with their measured GI50 values.
- Test system: SF-295
- testMethodNotes: NCI tumour cell line growth inhibition, 48 h
Active and inactive are the calls of the source. No stated cut-off is given here; in the data, active = GI50 up to about 1.1 µM and inactive = higher.

Worked examples, 3 molecules total:
CC(C)CCCC(C)[C@H]1CC[C@H]2[C@@H]3CC[C@H]4C[C@@H](CCC=C(c5cc(Cl)c(O)c(C(=O)OC(C)C)c5)c5cc(Cl)c(O)c(C(=O)OC(C)C)c5)CC[C@]4(C)[C@H]3CC[C@]12C (some centres undefined) :: > 50 µM (inactive)
Cc1ncc([N+](=O)[O-])n1CC(O)Cn1ccnc1[N+](=O)[O-] (centres undefined) :: > 100 µM (inactive)
CCCC(=O)OC[n+]1cccc(-c2c(COC(=O)NC(C)C)c(COC(=O)NC(C)C)c3n2CCC3)c1 :: 71.9 µM (inactive)

GI50 for "CCOC(=O)c1c[nH]c2c(ccc3nn(C)nc32)c1=O" ?
> 100 µM (inactive)

---

- System: HOP-92
- testMethodNotes: NCI tumour cell line growth inhibition, 48 h
Active and inactive are the calls of the source. Rule as the data show it: active = GI50 up to about 1.1 µM and inactive = higher.
reportedMetric: GI50

COc1cc(/C=N/N=C2NCCN2)ccc1O :: > 100 µM (inactive)

Which GI50 value belongs to "Cc1c(-c2ccccc2)c(C#N)c2nnn(-c3ccc([N+](=O)[O-])cc3)c(=O)n12" ?
16.5 µM (inactive)

Would you mind doing "COc1cc(NS(C)(=O)=O)ccc1Nc1cc(C)nc2ccc3[nH]ccc3c12" as well?
> 100 µM (inactive)

Input COc1cccc(C23CCCC(C2)NCC3Br)c1OC (stereo unspecified)
27.9 µM (inactive)

And the next one, "CC(=O)Nc1ccc(-c2nc3cc(Cl)ccc3o2)cc1" ?
> 50 µM (inactive)

Entry CC12OC3(C)OC(=O)C(c4ccccc4)(O1)C3(C)O2 (stereo unspecified) please
> 100 µM (inactive)

---

- Test system: OVCAR-4
- testMethodNotes: NCI tumour cell line growth inhibition, 48 h
The source made the active and inactive calls. Rule as the data show it: active = GI50 up to about 1.1 µM and inactive = higher.
Field 'call' accepts y = active, n = inactive

Solved entries:
CC1(O)C2(c3ccccc3)CCC[N+]1(C)CC2 (stereo not given) :: n
C/C(=N\N)C(CN1CCOCC1)C(c1ccccc1)c1c(O)c2ccccc2oc1=O (stereo not given) :: n

Hi, sorry to bother you, what did the test record for "CCCCCCN(N)C(=O)CC#N" ?
n

Let us now turn to "COc1ccc([N+]2=NC(c3ccc([N+](=O)[O-])cc3)=NN(c3ccccc3)C2)cc1.[O-][Cl+3]([O-])([O-])[O-]"
n

Continue with "CCCCCCc1ccc(CCCCCCCC(=O)O)o1"
n

---

- Tested on: DMS-273
- testMethodNotes: NCI tumour cell line growth inhibition, 48 h
Calls of active or inactive are those of the source. No stated cut-off is given here; in the data, active = GI50 up to about 1.1 µM and inactive = higher.
Can you answer with just one of these options? active, inactive

Before answering, review these 3 worked examples.
O=C1/C(=C/c2ccccc2)CNC/C1=C\c1ccccc1 :: active
COC(=O)NC1C(C)OC(OC2C/C=C(/C)C3C=CC4C(OC5CC(OC6CC(O)C(OC7CC(O)C(OC)C(C)O7)C(C)O6)C(O)C(C)O5)C(C)CC(C)C4C3(C)C(=O)C3=C(O)C4(CC(C)C(CO)=CC4/C=C\2C)OC3=O)CC1(C)[N+](=O)[O-] (centres undefined) :: inactive
O=S(=O)(O)c1cc(S(=O)(=O)O)c2cc(/N=N/c3ccc(/N=N/c4ccc(/C=C/c5ccc(/N=[N+](/[O-])c6ccc(/C=C/c7ccc(/N=N/c8ccc(/N=N/c9ccc%10cc(S(=O)(=O)O)cc(S(=O)(=O)O)c%10c9)cc8)cc7S(=O)(=O)O)c(S(=O)(=O)O)c6)cc5S(=O)(=O)O)c(S(=O)(=O)O)c4)cc3)ccc2c1 :: inactive

Next compound, please.
How did this test come out for CC(Nc1ccc(S(=O)(=O)NC(=N)N)cc1)c1c2ccccc2nc2ccccc12 (centres undefined) ?
inactive

---

- System: SNB-19
- testMethodNotes: NCI tumour cell line growth inhibition, 48 h
Active and inactive are the calls of the source. Rule as the data show it: active = GI50 up to about 1.1 µM and inactive = higher.
Reply using exactly one outcome from active, inactive

Please review the following examples before continuing.
CC1(CO)COC(C)(C)OC1 :: inactive
N=C(N)SCc1ccc(Cl)c2ccccc12.O=[N+]([O-])c1ccc(O)c([N+](=O)[O-])c1 :: inactive
CCn1nc(C)c2c1C(=O)NC(C)C(=O)N2 (stereo not drawn) :: inactive
COc1ccc2c(c1)CCC1=C/C(=N\NC(N)=O)CCC12C (stereo not drawn) :: inactive
CN1CCc2[nH]nc(-c3n[nH]c4c3CN(C)CC4)c2C1 :: inactive
COc1cc(OC)c(C2(c3c(OC(C)C)c(=O)c3=O)SCCCS2)cc1OC :: inactive
C=C1C(O)C2(O)OCC34C(CC5C(C)=CC(=O)C(O)C5(C)C23)OC(=O)C(OC(=O)C/C=C(\C)CCCCC)C14 (stereo not drawn) :: active

Alright, here's another compound for you.
Tell me the assay call for "O=S(=O)(O)c1cc(S(=O)(=O)O)c2cc(/N=N/c3ccc(/N=N/c4ccc(/C=C/c5ccc(/N=[N+](/[O-])c6ccc(/C=C/c7ccc(/N=N/c8ccc(/N=N/c9ccc%10cc(S(=O)(=O)O)cc(S(=O)(=O)O)c%10c9)cc8)cc7S(=O)(=O)O)c(S(=O)(=O)O)c6)cc5S(=O)(=O)O)c(S(=O)(=O)O)c4)cc3)ccc2c1" please.
inactive
